Kindly supply the reported Cell Viability % of control values for the records listed here.
- System: B16-F10 murine melanoma cells
- assayOverview: Cell viability assay (MTT)
- Assay type: cell-based
- conditionParameters: 0.1 mmol/L; MTT; B16-F10 cells

In the examples that follow, each entry is paired with its recorded Cell Viability % of control.
[
  {
    "compound": "COC(=O)CCSc1ncccn1 [Comparative Example 2, Methyl 3-(Pyrimidin-2′-ylthio)propionate, reference compound]",
    "parameter": "Cell Viability % of control",
    "valueReported": "88 % of control"
  },
  {
    "compound": "O=C(Sc1ncccn1)c1cccnc1",
    "parameter": "Cell Viability % of control",
    "valueReported": "101 % of control"
  },
  {
    "compound": "O=C(Sc1ncccn1)c1ccncc1",
    "parameter": "Cell Viability % of control",
    "valueReported": "92 % of control"
  },
  {
    "compound": "OC[C@H]1O[C@@H](Oc2ccc(O)cc2)[C@H](O)[C@@H](O)[C@@H]1O [Arbutin, arbutin, reference compound]",
    "parameter": "Cell Viability % of control",
    "valueReported": "125 % of control"
  },
  {
    "compound": "CC(C)(C)C(=O)Sc1ncccn1",
    "parameter": "Cell Viability % of control",
    "valueReported": "91 % of control"
  },
  {
    "compound": "CCOC(=O)Sc1ncccn1",
    "parameter": "Cell Viability % of control",
    "valueReported": "87 % of control"
  }
]

Req: Dear colleague, please send me the reported Cell Viability % of control for COC(=O)CSc1ncccn1 [Comparative Example 1, Methyl 2-(pyrimidin-2′-ylthio)acetate, reference compound] when you can.
Resp: 114 % of control

====

So I've got a bunch of molecules here, and I need their Cell Viability % of control values.
- Tested on: B16-F10 murine melanoma cells
- assayOverview: Cell viability assay (MTT)
- Format: cell-based
- conditionParameters: 1.0 mmol/L; MTT; B16-F10 cells

Consider the following illustrative entries.
[
  {
    "molecule": "CCOC(=O)Sc1ncccn1",
    "valueReported": "32 % of control"
  },
  {
    "molecule": "O=C(Sc1ncccn1)c1cccnc1",
    "valueReported": "3.5 % of control"
  },
  {
    "molecule": "CC(C)(C)C(=O)Sc1ncccn1",
    "valueReported": "7 % of control"
  },
  {
    "molecule": "OC[C@H]1O[C@@H](Oc2ccc(O)cc2)[C@H](O)[C@@H](O)[C@@H]1O [Arbutin, arbutin, reference compound]",
    "valueReported": "134 % of control"
  }
]

Moving on to another molecule below.
Req: State measured Cell Viability % of control of the molecule COC(=O)CSc1ncccn1 [Comparative Example 1, Methyl 2-(pyrimidin-2′-ylthio)acetate, reference compound] with B16-F10 murine melanoma cells.
Resp: 117 % of control

====

- Test system: B16-F10 murine melanoma cells
- assayOverview: Melanogenesis inhibition assay (melanin content, absorbance at 450 nm)
- Type: cell-based
- conditionParameters: Mus musculus, 72 h, 1.0 mmol/L, read-out: Melanogenesis % of control
Lab note: cut-off is 40%. Strictly less in activity at 1000 µM is 1. Exactly 40% or more is -1.

A selection of reference data follows.
[
  {
    "compound": "CC(C)(C)C(=O)Sc1ncccn1 [Example 5]",
    "classLabel": 1
  },
  {
    "compound": "O=C(Sc1ncccn1)c1cccnc1 [Example 7]",
    "classLabel": 1
  },
  {
    "compound": "OC[C@H]1O[C@@H](Oc2ccc(O)cc2)[C@H](O)[C@@H](O)[C@@H]1O [Arbutin, arbutin, reference compound]",
    "classLabel": -1
  },
  {
    "compound": "CCOC(=O)Sc1ncccn1 [Example 3]",
    "classLabel": 1
  },
  {
    "compound": "O=c1cc(CO)occ1O [Kojic acid, reference compound]",
    "classLabel": -1
  }
]

Attention now shifts to the item below.
Req: activity at 1000 µM strictly < 40% for this compound? COC(=O)CSc1ncccn1 [Comparative Example 1, Methyl 2-(pyrimidin-2′-ylthio)acetate, reference compound]
Resp: -1

Values from patent US20130273183A1
